# tested.system: Pneumocystis carinii DHFR (Pneumocystis carinii)
property.measured: Ki
Mention the unit after the number when you answer.

## Task What value of Ki has been reported for the following compound? CC1(C)N=C(N)N=C(N)N1c1ccc(Cl)cc1 [Substituent 4-Cl, reference compound]
## Result 109 nM

----------
# tested.system: P. carinii DHFR (Pneumocystis carinii)
# assay.text: biochemical
# condition.notes: 100 µM NADPH, 100 µM DHF, 1 nM P. carinii DHFR, 25 C; read-out: IC5O (100 µM DHF)
property.measured: pIC50
Please report pIC50 as the negative decimal logarithm of the molar concentration, giving only the number.

## Task What value of pIC50 has been reported for the following compound? CC1(C)N=C(N)N=C(N)N1c1ccc(C(F)(F)F)cc1 [-CF3]
## Result 4.60

----------
# tested.system: P. carinii DHFR (Pneumocystis carinii, UniProt P16184)
# Sequence (P16184 whole entry): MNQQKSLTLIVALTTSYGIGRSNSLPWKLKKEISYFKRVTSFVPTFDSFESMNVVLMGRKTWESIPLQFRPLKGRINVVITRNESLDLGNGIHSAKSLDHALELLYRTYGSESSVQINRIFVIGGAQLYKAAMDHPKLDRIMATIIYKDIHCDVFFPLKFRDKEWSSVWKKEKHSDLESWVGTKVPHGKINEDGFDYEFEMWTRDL
# assay.text: biochemical
# condition.notes: read-out: Ki
property.measured: Ki (nM)
Numeric only. Scale: nM

## Task What value of Ki has been reported for the following molecule? CC1(C)N=C(N)N=C(N)N1c1ccc(C(F)(F)F)cc1 [-CF3]
## Result 87.5

----------
# tested.system: Pneumocystis carinii DHFR (Pneumocystis carinii, UniProt P16184)
# Sequence (P16184 whole entry): as above
property.measured: pIC50
Please report pIC50 as the negative decimal logarithm of the molar concentration, giving only the number.

## Task What value of pIC50 has been reported for the following compound? Cc1cccc(OCc2cccc(N3C(N)=NC(N)=NC3(C)C)c2)c1 [3-CH20ϕ, 3'CH3]
## Result 5.85

## Task Would you mind doing CC1(C)N=C(N)N=C(N)N1c1cccc([N+](=O)[O-])c1 [Substituent 3-NO2] as well?
## Result 5.02

## Task Would you mind doing CCOC(=O)c1cccc(N2C(N)=NC(N)=NC2(C)C)c1 [Substituent 3-CO2Et] as well?
## Result 3.78

## Task Would you mind doing COc1cccc(OCc2cccc(N3C(N)=NC(N)=NC3(C)C)c2)c1 [3-CH2Oϕ, 3'OCH3] as well?
## Result 6.26

## Task Would you mind doing CC1(C)N=C(N)N=C(N)N1c1cccc(COc2cccc3ccccc23)c1 [3-CH20(a)Naphthyl] as well?
## Result 6.44

## Task Would you mind doing CC1(C)N=C(N)N=C(N)N1c1ccc(Cl)cc1 [Substituent 4-Cl, reference compound] as well?
## Result 5.12

## Task Would you mind doing CC1(C)N=C(N)N=C(N)N1c1cccc(COc2cccc(Cl)c2)c1 [3-CH20ϕ, 3'Cl] as well?
## Result 6.07

## Task Would you mind doing CCCCCCCCCCCOc1cccc(N2C(N)=NC(N)=NC2(C)C)c1 [3-O(CH2)10CH3] as well?
## Result 5.88

## Task Would you mind doing CCCCCCCCCCCCCCOc1cccc(N2C(N)=NC(N)=NC2(C)C)c1 [3-O(CH2)13CH3] as well?
## Result 4.63

## Task Would you mind doing CCCCCCOc1cccc(N2C(N)=NC(N)=NC2(C)C)c1 [3-O(CH2)5CH3] as well?
## Result 5.82

## Task Would you mind doing CC1(C)N=C(N)N=C(N)N1c1cccc(COc2cccc(CO)c2)c1 [3-CH2Oϕ, 3'CH2OH] as well?
## Result 5.74

## Task Would you mind doing CC1(C)N=C(N)N=C(N)N1c1cccc(CNc2ccc(C#N)cc2)c1 [3-CH2NHϕ, 4'CN] as well?
## Result 6.22

## Task Would you mind doing CC1(C)N=C(N)N=C(N)N1c1cccc(COc2ccc(Cl)c(Cl)c2Cl)c1 [3-CH2Oϕ, 2',3',4'Cl3] as well?
## Result 6.25
